# Lookup of reported Major peak keyed by entry
- ASSAY_PROCEDURE: Test 2 stability data under 5° C. for 6 months (liquid chromatography)
- Format: physicochemical
- STATED_CONDITIONS: 5° C., 1 month; in % (unit assumed)
- Protocol: Liquid chromatography test conditions are: chromatographic column is Merck Purospher®STAR RP-18 endcapped 250×4.6 mm, 5 μm; mobile phase A: acetonitrile, mobile phase B: 4 ml phosphoric acid added in 1 L water, the pH is adjusted to 3.5 by triethylamine; detecting wavelength: 310 nm; flow rate: 1 ml/min; sample load: 10 μl; column temperature: 30° C., liquid chromatography conditions are shown in table 4: […]
Keep the answer to the number alone.

Consider the following illustrative entries.
{"MOLECULE": "CCCCCCOC(=O)/N=C(/N)c1ccc(NCc2nc3cc(C(=O)N(CCC(=O)OCC)c4ccccn4)ccc3n2C)cc1.CS(=O)(=O)O [Crystal form I]", "OBS_VALUE": 99.655}
{"MOLECULE": "CCCCCCOC(=O)/N=C(/N)c1ccc(NCc2nc3cc(C(=O)N(CCC(=O)OCC)c4ccccn4)ccc3n2C)cc1.CS(=O)(=O)O [Crystal form M]", "OBS_VALUE": 99.650}
{"MOLECULE": "CCCCCCOC(=O)/N=C(/N)c1ccc(NCc2nc3cc(C(=O)N(CCC(=O)OCC)c4ccccn4)ccc3n2C)cc1.CS(=O)(=O)O [Crystal form N]", "OBS_VALUE": 99.659}

Given item CCCCCCOC(=O)/N=C(/N)c1ccc(NCc2nc3cc(C(=O)N(CCC(=O)OCC)c4ccccn4)ccc3n2C)cc1.CS(=O)(=O)O [Crystal form II] , the value recorded as its Major peak is 99.630

Given item CCCCCCOC(=O)/N=C(/N)c1ccc(NCc2nc3cc(C(=O)N(CCC(=O)OCC)c4ccccn4)ccc3n2C)cc1.CS(=O)(=O)O [Semihydrate crystal form] , the value recorded as its Major peak is 99.827

----------
- ASSAY_PROCEDURE: Test 1 stability data under 25° C. for 6 months (liquid chromatography)
- Format: physicochemical
- STATED_CONDITIONS: 25° C., 1 month; in % (unit assumed)
- Protocol: Liquid chromatography test conditions are: chromatographic column is Merck Purospher®STAR RP-18 endcapped 250×4.6 mm, 5 μm; mobile phase A: acetonitrile, mobile phase B: 4 ml phosphoric acid added in 1 L water, the pH is adjusted to 3.5 by triethylamine; detecting wavelength: 310 nm; flow rate: 1 ml/min; sample load: 10 μl; column temperature: 30° C., liquid chromatography conditions are shown in table 4: […]
# Lookup of reported Major peak keyed by entry
Keep the answer to the number alone.

{"MOLECULE": "CCCCCCOC(=O)/N=C(/N)c1ccc(NCc2nc3cc(C(=O)N(CCC(=O)OCC)c4ccccn4)ccc3n2C)cc1.CS(=O)(=O)O [Crystal form M]", "OBS_VALUE": 99.632}
{"MOLECULE": "CCCCCCOC(=O)/N=C(/N)c1ccc(NCc2nc3cc(C(=O)N(CCC(=O)OCC)c4ccccn4)ccc3n2C)cc1.CS(=O)(=O)O [Semihydrate crystal form]", "OBS_VALUE": 99.707}
{"MOLECULE": "CCCCCCOC(=O)/N=C(/N)c1ccc(NCc2nc3cc(C(=O)N(CCC(=O)OCC)c4ccccn4)ccc3n2C)cc1.CS(=O)(=O)O [Crystal form N]", "OBS_VALUE": 99.631}
{"MOLECULE": "CCCCCCOC(=O)/N=C(/N)c1ccc(NCc2nc3cc(C(=O)N(CCC(=O)OCC)c4ccccn4)ccc3n2C)cc1.CS(=O)(=O)O [Crystal form II]", "OBS_VALUE": 99.493}

Given item CCCCCCOC(=O)/N=C(/N)c1ccc(NCc2nc3cc(C(=O)N(CCC(=O)OCC)c4ccccn4)ccc3n2C)cc1.CS(=O)(=O)O [Crystal form I] , the value recorded as its Major peak is 99.604

----------
# Lookup of reported Major peak keyed by entry
- ASSAY_PROCEDURE: Test 2 stability data under 5° C. for 6 months (liquid chromatography)
- Format: physicochemical
- STATED_CONDITIONS: 5° C., 4 months; in % (unit assumed)
Keep the answer to the number alone.

{"MOLECULE": "CCCCCCOC(=O)/N=C(/N)c1ccc(NCc2nc3cc(C(=O)N(CCC(=O)OCC)c4ccccn4)ccc3n2C)cc1.CS(=O)(=O)O [Semihydrate crystal form]", "Major peak": 99.831}
{"MOLECULE": "CCCCCCOC(=O)/N=C(/N)c1ccc(NCc2nc3cc(C(=O)N(CCC(=O)OCC)c4ccccn4)ccc3n2C)cc1.CS(=O)(=O)O [Crystal form I]", "Major peak": 99.651}
{"MOLECULE": "CCCCCCOC(=O)/N=C(/N)c1ccc(NCc2nc3cc(C(=O)N(CCC(=O)OCC)c4ccccn4)ccc3n2C)cc1.CS(=O)(=O)O [Crystal form M]", "Major peak": 99.649}
{"MOLECULE": "CCCCCCOC(=O)/N=C(/N)c1ccc(NCc2nc3cc(C(=O)N(CCC(=O)OCC)c4ccccn4)ccc3n2C)cc1.CS(=O)(=O)O [Crystal form II]", "Major peak": 99.641}

Given item CCCCCCOC(=O)/N=C(/N)c1ccc(NCc2nc3cc(C(=O)N(CCC(=O)OCC)c4ccccn4)ccc3n2C)cc1.CS(=O)(=O)O [Crystal form N] , the value recorded as its Major peak is 99.650

----------
- ASSAY_PROCEDURE: Test 2 stability data under 5° C. for 6 months (liquid chromatography)
- Format: physicochemical
- STATED_CONDITIONS: 5° C., 5 months; in % (unit assumed)
- Procedure: Liquid chromatography test conditions are: chromatographic column is Merck Purospher®STAR RP-18 endcapped 250×4.6 mm, 5 μm; mobile phase A: acetonitrile, mobile phase B: 4 ml phosphoric acid added in 1 L water, the pH is adjusted to 3.5 by triethylamine; detecting wavelength: 310 nm; flow rate: 1 ml/min; sample load: 10 μl; column temperature: 30° C., liquid chromatography conditions are shown in table 4: […]
# Lookup of reported Major peak keyed by entry
Keep the answer to the number alone.

Consider the following illustrative entries.
{"COMPOUND": "CCCCCCOC(=O)/N=C(/N)c1ccc(NCc2nc3cc(C(=O)N(CCC(=O)OCC)c4ccccn4)ccc3n2C)cc1.CS(=O)(=O)O [Crystal form M]", "OBS_VALUE": 99.649}
{"COMPOUND": "CCCCCCOC(=O)/N=C(/N)c1ccc(NCc2nc3cc(C(=O)N(CCC(=O)OCC)c4ccccn4)ccc3n2C)cc1.CS(=O)(=O)O [Crystal form II]", "OBS_VALUE": 99.598}
{"COMPOUND": "CCCCCCOC(=O)/N=C(/N)c1ccc(NCc2nc3cc(C(=O)N(CCC(=O)OCC)c4ccccn4)ccc3n2C)cc1.CS(=O)(=O)O [Crystal form N]", "OBS_VALUE": 99.650}
{"COMPOUND": "CCCCCCOC(=O)/N=C(/N)c1ccc(NCc2nc3cc(C(=O)N(CCC(=O)OCC)c4ccccn4)ccc3n2C)cc1.CS(=O)(=O)O [Semihydrate crystal form]", "OBS_VALUE": 99.827}

We next turn to a different compound, shown below.
Given item CCCCCCOC(=O)/N=C(/N)c1ccc(NCc2nc3cc(C(=O)N(CCC(=O)OCC)c4ccccn4)ccc3n2C)cc1.CS(=O)(=O)O [Crystal form I] , the value recorded as its Major peak is 99.649

----------
- ASSAY_PROCEDURE: Test 1 stability data under 25° C. for 6 months (liquid chromatography)
- Type: physicochemical
- STATED_CONDITIONS: 25° C., 6 months; in % (unit assumed)
ASSAY_ENDPOINT: Major peak
Keep the answer to the number alone.

Consider the following illustrative entries.
{"MOLECULE": "CCCCCCOC(=O)/N=C(/N)c1ccc(NCc2nc3cc(C(=O)N(CCC(=O)OCC)c4ccccn4)ccc3n2C)cc1.CS(=O)(=O)O [Semihydrate crystal form]", "Major peak": 99.254}
{"MOLECULE": "CCCCCCOC(=O)/N=C(/N)c1ccc(NCc2nc3cc(C(=O)N(CCC(=O)OCC)c4ccccn4)ccc3n2C)cc1.CS(=O)(=O)O [Crystal form M]", "Major peak": 99.541}
{"MOLECULE": "CCCCCCOC(=O)/N=C(/N)c1ccc(NCc2nc3cc(C(=O)N(CCC(=O)OCC)c4ccccn4)ccc3n2C)cc1.CS(=O)(=O)O [Crystal form II]", "Major peak": 98.911}
{"MOLECULE": "CCCCCCOC(=O)/N=C(/N)c1ccc(NCc2nc3cc(C(=O)N(CCC(=O)OCC)c4ccccn4)ccc3n2C)cc1.CS(=O)(=O)O [Crystal form I]", "Major peak": 99.220}

Given item CCCCCCOC(=O)/N=C(/N)c1ccc(NCc2nc3cc(C(=O)N(CCC(=O)OCC)c4ccccn4)ccc3n2C)cc1.CS(=O)(=O)O [Crystal form N] , the value recorded as its Major peak is 99.536
